tested on: NCI/ADR-RES ovarian; assay: NCI tumour cell line growth inhibition, 48 h
Below is a list of entries, each paired with its recorded TGI value.
API: value field is a number in µM; no unit string.

// recorded TGI for CCOC(=O)C1(Cc2ccccc2)Cc2ccccc2C1=O (stereo not drawn) : 62.8

***
// recorded TGI for `C=C(CN1CCN(c2cccc(F)c2)CC1)c1ccc(C(=O)Nc2ccccc2N)cc1` : 1.92

// recorded TGI for `COC(=O)[C@@H]1C[C@]2(CC=C(C)C)c3ccccc3N(S(=O)(=O)c3ccccc3)[C@@H]2N1C(=O)OC` : 83.1

// recorded TGI for `CC(C)=CCC[C@H](C)[C@H]1CC[C@@H](C)c2cc(O)c(C)cc21` : 36.7

* * *

test system: MOLT-4 leukemia; test: NCI tumour cell line growth inhibition, 48 h
ENDPOINT_NAME: TGI

// recorded TGI for `OCSc1nn(CO)c(=S)s1` : 51.6 µM

***
// recorded TGI for CCN(CC(COc1ccc2c(c1)[n+]([O-])nc(N)[n+]2[O-])OC(C)=O)C(C)=O (stereo not drawn) : > 100 µM

// recorded TGI for `CC(C)(O)[C@H](CCO)O[Si](c1ccccc1)(c1ccccc1)C(C)(C)C` : 20 µM

// recorded TGI for COc1cc(C2C(C#N)=C(N)Oc3cc(O)ccc32)cc(OC)c1OC (stereo not drawn) : > 100 µM

// recorded TGI for `C/C(=N/N)c1ccc2[nH]c3c(C)cc([N+](=O)[O-])c(C)c3c2c1` : 19.8 µM

// recorded TGI for CN(C)CCC1(C2=CCCC2)CC/C(=C\c2ccccc2)C1=O (stereo not drawn) : 39 µM

// recorded TGI for `CC(=O)c1ccc(NCN2C(=O)c3ccccc3C2=O)cc1` : > 100 µM

// recorded TGI for `COc1cc2c3c(n(CCCCl)c(=O)c2cc1OC)-c1ccc(C#N)cc1C3=O` : > 100 µM

// recorded TGI for CC(NC(=O)C(N)CC(=O)O)NC(=O)N1CCCC1 (stereo not drawn) : > 100 µM

// recorded TGI for c1ccc(C2N3CCCCC3[C@@H]3c4[nH]c5ccccc5c4CCN23)cc1 (stereo partly drawn) : > 100 µM

// recorded TGI for `CCc1n[nH]c(=O)n1NC(=O)/C=C\C(=O)O` : > 100 µM

// recorded TGI for `CC1=C(C(=O)Nc2ccccc2C)C(c2ccc(C3C(C(=O)Nc4ccccc4C)=CNC=C3C(=O)Nc3ccccc3C)cc2)C(C(=O)Nc2ccccc2C)=C(C)N1` : > 40.3 µM

// recorded TGI for `O=C(O)CNS(=O)(=O)c1ccc(NC(=O)Nc2ccccc2)cc1` : > 100 µM

* * *

tested on: NCI-H23 lung; assay: NCI tumour cell line growth inhibition, 48 h
ENDPOINT_NAME: TGI (µM)
API: value field is a number in µM; no unit string.

Worked examples, 5 compounds total:
So the reported TGI for `Cn1c(=S)sc2nc3ccccc3n2c1=S` , on NCI-H23 lung, turned out to be 30.7

So the reported TGI for CC[C@]12C=CCN3CCC4(c5cc([C@@]6(C(=O)OC)CC7CN(CCc8c6[nH]c6ccccc86)C[C@@H]6CCC[C@H]76)c(OC)cc5N(C)C4[C@](O)(C(=O)OC)C1OC(C)=O)C32 (stereo not given in full) , on NCI-H23 lung, turned out to be 1.42

So the reported TGI for CC1OC(OC2CC(O)(C(=O)CO)Cc3c(O)c4c(c(O)c32)C(=O)c2ccccc2C4=O)CC(N)C1O (stereo not given) , on NCI-H23 lung, turned out to be 0.203

So the reported TGI for `CC/C=C\C/C=C\C[C@H]1C/C=C2/C(=O)C=C[C@H]2C/C=C\CCC(=O)O1` , on NCI-H23 lung, turned out to be 8.31

So the reported TGI for `COc1cc(NC(N)=NCCC(C)(C)c2ccc(C(F)(F)F)cc2)ncc1C#N` , on NCI-H23 lung, turned out to be 3.15

***
So the reported TGI for COc1cc2c(cc1O)C(C)Cc1cc3c(cc1N(C)CC2)OCO3 (stereo not given) , on NCI-H23 lung, turned out to be 20.3

So the reported TGI for `CC[C@]12CCCN3CC[C@]4(C(=C(C(=O)OC)C1)Nc1ccccc14)[C@@H]32` , on NCI-H23 lung, turned out to be 43.8
